- assay_details: Determination of plasma protein binding (equilibrium dialysis)
- Format: in vitro ADME
- condition_summary: bound drug fraction to plasma protein; 4 hours at 37° C.
value_type: Exposure (% rPPB) (%)

Previously resolved entries follow.
compound="Cc1nsc(-c2nnc3n2CCN(C(=O)c2ccc(F)c(F)c2)C3C)n1 (racemic)" unit_annotation=% observed=25
compound="CCc1noc(-c2nnc3n2CCN(C(=O)c2ccc(F)cc2)C3C)n1 (racemic)" unit_annotation=% observed=24
compound=Cc1ccc(C(=O)N2CCn3c(-c4nc(C)ns4)nnc3[C@H]2C)cc1 unit_annotation=% observed=51
compound=Cc1nsc(-c2nnc3n2CCN(C(=O)c2ccccc2C)[C@@H]3C)n1 unit_annotation=% observed=19

a: CCC[C@@H]1c2nnc(-c3nc(C)ns3)n2CCN1C(=O)c1ccc(F)cc1
b: C[C@H](F)c1noc(-c2nnc3n2CCN(C(=O)c2ccc(F)cc2)[C@@H]3C)n1 [Compound 45-2]
c: Cc1nsc(-c2nnc3n2CCN(C(=O)c2ccc(Cl)c(Cl)c2)C3C)n1 (racemic)
d: C[C@@H]1c2nnc(-c3nc(C(F)F)ns3)n2CCN1C(=O)c1ccc(F)cc1
e: Cc1nsc(-c2nnc3n2CCN(C(=O)c2ccc(F)cc2F)[C@@H]3C)n1
Prompt line: Please produce an ascending ranking of these compounds based on Exposure (% rPPB). A complete answer lists every label in the requested sequence.
Response line: d, e, b, a, c

A: C[C@@H]1c2nnc(-c3nc(CC(F)(F)F)no3)n2CCN1C(=O)c1ccc(F)cc1
B: Cc1nsc(-c2nnc3n2CCN(C(=O)c2ccc(Cl)c(Cl)c2)[C@@H]3C)n1
C: COc1cc(C(=O)N2CCn3c(-c4nc(C)ns4)nnc3[C@H]2C)ccc1F
Prompt line: Rank by Exposure (% rPPB) (largest to smallest). A complete answer lists every label in the requested sequence.
Response line: B, A, C
(B: 67%, A: 31%, C: 19%)
